Tested on: BDF1 mice, P388 leukemia ip, median survival T/C
Experiment: NCI In Vivo Anticancer Drug Screen. Data for tumor model P388 Leukemia (intraperitoneal) in B6D2F1 (BDF1) mice
Details: endpoint: median survival time; dose: 1.0 mg/kg/injection; schedule: Q01DX009 (ip); vehicle: saline
Inconclusive results and toxic doses are left out. The calls were made as follows: active = survival T/C of 150% or more; inactive = T/C below 125% in these data.
Pick one: t (active), f (inactive)

>>> classification("OCC1OC(n2cnc3c2NC=NC[C@H]3O)CC1O (some centres undefined)")
"f"

Exercise: Could you check what this test reported for CC1(C)N=C(N)N=C(N)N1c1ccc(CCCCc2ccc(S(=O)(=O)F)cc2)c(Cl)c1 ?
Solution: t

Exercise: Identify the outcome logged in this assay for the compound shown: C=C1[C@@H](O)[C@]2(O)OC[C@@]34[C@H]1[C@@H](OC(=O)C(C)CC)C(=O)O[C@@H]3C[C@H]1C(C)=CC(=O)[C@@H](O)[C@]1(C)[C@@H]24 (some centres undefined)
Solution: t

Exercise: // outcome(item) with item = CC[C@]12CN3CCc4c([nH]c5ccccc45)[C@@](C(=O)OC)(c4cc5c(cc4OC)N(C)[C@H]4[C@@](O)(C(=O)OC)[C@H](OC(C)=O)[C@]6(CC)C=CCN7CC[C@]54[C@@H]76)CC(C3)[C@H]1O2 (some centres undefined)
Solution: t
